target.or.system: human M1 receptor (hCHRM1) (Homo sapiens)
test.protocol: Measurement of M1 receptor positive allosteric modulator (M1PAM) activity (calcium fluorescence, Fluo-4, FDSS)
test.context: inflection point of concentration-dependent curve; CHO-K1 cells stably expressing hCHRM1; in presence of acetylcholine at EC20 concentration (final 0.8 nM); read-out: IP value
Reported pEC50 values are given for each entry in this list.
Please treat pEC50 as minus the base-10 logarithm of the molar concentration.

1. Cc1cc2nnn([C@H]3COCC[C@@H]3O)c(=O)c2cc1Cc1ccc(-c2ccn(C)n2)cc1 ... 7.23
2. Cc1c(Cc2ccc(-n3cccn3)cc2)cc2c(=O)n([C@H]3CCCC[C@@H]3O)cnc2c1C (relative stereo) ... 7.28
3. Cc1c(Cc2ccc(-n3cccn3)cc2)cc2c(=O)n([C@H]3COCC[C@@H]3O)cnc2c1F ... 7.77
4. Cc1c(Cc2ccc(-n3ccnc3)nc2)cc2c(=O)n([C@H]3COCC[C@@H]3O)nnc2c1C (relative stereo) ... 7.51

*Q* What value of measured pEC50 is listed for Cc1c(Cc2ccc(-c3ccn(C)n3)nc2)cc2c(=O)n(CC3CCCO3)nnc2c1Cl (stereo not shown) ?
*A* 7.60

*Q* What value of measured pEC50 is listed for Cc1c(Cc2ccc(-c3ccn(C)n3)cc2)cc2c(=O)n([C@H]3COCC[C@@H]3O)nnc2c1C [Example 47] ?
*A* 7.42

*Q* What value of measured pEC50 is listed for Cc1c(Cc2ccc(Cl)nc2)cc2c(=O)n([C@H]3CCCC[C@@H]3O)cnc2c1C (relative stereo) [Example 19] ?
*A* 7.18

----------
Reported activity (%) at 10 μM values are given for each entry in this list.
target.or.system: human M1 receptor (hCHRM1) (Homo sapiens, UniProt P11229)
Construct: expressed in transfected cells; host or cells: CHO-K1
Sequence (P11229 whole entry): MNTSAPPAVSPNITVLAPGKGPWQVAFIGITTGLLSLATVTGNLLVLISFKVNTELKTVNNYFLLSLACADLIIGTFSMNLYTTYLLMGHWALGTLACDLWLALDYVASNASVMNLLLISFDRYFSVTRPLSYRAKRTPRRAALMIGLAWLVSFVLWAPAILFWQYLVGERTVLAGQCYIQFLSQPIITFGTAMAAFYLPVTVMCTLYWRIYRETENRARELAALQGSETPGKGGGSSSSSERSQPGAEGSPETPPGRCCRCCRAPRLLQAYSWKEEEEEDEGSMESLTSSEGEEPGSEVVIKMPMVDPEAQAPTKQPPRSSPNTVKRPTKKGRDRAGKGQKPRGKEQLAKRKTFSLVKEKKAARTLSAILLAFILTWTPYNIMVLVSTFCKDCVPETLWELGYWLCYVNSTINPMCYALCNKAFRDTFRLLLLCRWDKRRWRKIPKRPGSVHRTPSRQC
test.protocol: Measurement of M1 receptor positive allosteric modulator (M1PAM) activity (calcium fluorescence, Fluo-4, FDSS)
Assay type: cell-based
test.context: 10 μM test compound; acetylcholine EC20 (final 0.8 nM) present; 100% = acetylcholine 1 μM, 0% = DMSO; CHO-K1 hCHRM1 cells
Give a bare numeral; the unit % is implied.

1) Cc1c(Cc2ccc(-n3cccn3)cc2)cc2c(=O)n([C@H]3CCC[C@@H]3O)cnc2c1C (relative stereo) ... 96

*Q* What reported activity (%) at 10 μM corresponds to Cc1c(Cc2ccc(-n3cccn3)cc2)cc2c(=O)n([C@H]3COCC[C@@H]3O)cnc2c1C (relative stereo) [Example 3] on human M1 receptor (hCHRM1) (Homo sapiens, UniProt P11229)?
*A* 98

*Q* What reported activity (%) at 10 μM corresponds to Cc1c(Cc2ccc(Cl)nc2)cc2c(=O)n([C@H]3CCCC[C@@H]3O)cnc2c1C [Example 54] on human M1 receptor (hCHRM1) (Homo sapiens, UniProt P11229)?
*A* 96

*Q* What reported activity (%) at 10 μM corresponds to Cc1c(Cc2ccc(-c3ccn(C)n3)cc2)cc2c(=O)n([C@H]3COCC[C@@H]3O)nnc2c1C [Example 47] on human M1 receptor (hCHRM1) (Homo sapiens, UniProt P11229)?
*A* 95

*Q* What reported activity (%) at 10 μM corresponds to Cc1c(Cc2ccc(-n3cccn3)cc2)cc2c(=O)n([C@H]3COCC[C@@H]3O)cnc2c1F on human M1 receptor (hCHRM1) (Homo sapiens, UniProt P11229)?
*A* 100

*Q* What reported activity (%) at 10 μM corresponds to Cc1ccc(Cc2cc3c(=O)n([C@H]4CCCC[C@@H]4O)cnc3c(C)c2C)cn1 (relative stereo) on human M1 receptor (hCHRM1) (Homo sapiens, UniProt P11229)?
*A* 96

*Q* What reported activity (%) at 10 μM corresponds to Cc1c(Cc2ccc(-n3cccn3)nc2)cc2c(=O)n([C@H]3COCC[C@@H]3O)nnc2c1C on human M1 receptor (hCHRM1) (Homo sapiens, UniProt P11229)?
*A* 100

The reported measurements were obtained from patent US10548899B2.
